Values compiled from PubChem BioAssay (NCI).

Test system: NCI-H460 lung
testSummary: NCI-60 one-dose screen, 48 h (100 = growth as untreated, 0 = no growth, -100 = all killed)
protocolConditions: 10 µM unless noted
This is part of a sample that, as a whole, favours compounds with a hit. Of some 83,000 tested, about 20% had one in any assay.
property: growth (%)
Just the number please, in %, no unit attached.

// sample COc1ccc2c(c1)c(CC(=O)[Se]CCC#N)c(C)n2C(=O)c1ccc(Cl)cc1 , its growth was 1.16

// sample O=[N+]([O-])c1cc(/C=N/Nc2nc(N/N=C/c3ccc(Cl)c([N+](=O)[O-])c3)nc(N3CCCCC3)n2)ccc1Cl , its growth was 98.7

// sample COc1cc(-c2nn(C(C)(C)C)cc2-c2ccnc(NCCCNS(=O)(=O)c3ccc(F)cc3)n2)ccc1Cl , its growth was 84.2

// sample Cc1ccc(-c2cc3nc(C(Cl)Cl)nc(-c4cccs4)n3n2)cc1 , its growth was 3.91

// sample CC(=O)c1nnn(-c2c(C(=O)n3nc(C)cc3C)sc(=S)n2-c2ccccc2)c1C , its growth was 113

// sample O=C(c1ccc(O)c(C(=O)N2Cc3ccc(OCCC[P+](c4ccccc4)(c4ccccc4)c4ccccc4)cc3C2)c1)N1Cc2cccc(F)c2C1 , its growth was 69.7

// sample C=C=COc1cccc(/C(N)=N/C(N)=N/c2nc3ccccc3s2)c1 , its growth was 93.9

// sample Cc1ccc2c(c1)Oc1nc(N)c(C#N)c(N)c1C2Sc1ccc(F)cc1 (centres undefined) , its growth was -50.4

// sample CCc1ccc(SC2c3ccc(N(CC)CC)cc3Oc3nc(N)c(C#N)c(N)c32)cc1 (centres undefined) , its growth was -58.3

// sample CCN1CCN(Cc2cn(-c3ccc(S(N)(=O)=O)cc3)nn2)CC1 , its growth was 108

// sample CN(C)CCNC(=O)c1ccc(-c2nc3ccc4[nH]ncc4c3c3c2CCC3)cc1 , its growth was 1.65

// sample CCCCCc1ccc(S(=O)(=O)Nc2cccc(-c3csc(NC(=O)CCCCCN4CCN(CCO)CC4)n3)c2)cc1 , its growth was 23.9

// sample COc1ccc(/C=N/NC2=NC3C(S2)N(C)C(=O)N3C)cc1 (centres undefined) , its growth was 9.74

// sample C=C1CC[C@@H]2[C@]3(C)COC(c4ccccc4)O[C@@H]3CC[C@@]2(C)[C@@H]1C/C=C1/C(=O)OC[C@H]1O (some centres undefined) , its growth was 99.8

// sample O=C(CSc1nnc(-c2ccc(Cl)cc2)n1-c1ccccc1)Nc1cccc(Cl)c1 , its growth was 47.9

// sample CN(C)CCNC(=O)c1ccc(-c2nc3ccc4[nH]ncc4c3c3c2COCC3)cc1 , its growth was 6.12

// sample CC(=O)c1ccc(Nc2nc(SCC(C)C)nc(-c3ccc(F)cc3)c2C#N)cc1 , its growth was 109

// sample O=C(NNc1nc2cc(F)cc(F)c2n2cccc12)c1cnccn1 , its growth was 1.69

// sample Nc1nc(Nc2ccccc2SSc2ccccc2Nc2nc(N)nc(-c3ccc4ccccc4c3)n2)nc(-c2ccc3ccccc3c2)n1 , its growth was 61.1

* * *

System: HCC-2998 colon
testSummary: NCI-60 one-dose screen, 48 h
protocolConditions: 10 µM unless noted
The panel holds about 83,000 compounds, 20% with a hit somewhere; the sample as a whole holds those more often. Calls of active or inactive are those of the source. How the source made its calls: active means growth percent below 10; inactive means the rest.
Outcome (select one): label 1 (active), label 0 (inactive)

Field: outcome | Entry: O=C(NNc1nc2cc(F)c(F)cc2n2c(CN3CC4CNCC4C3)ccc12)c1cnccn1 (stereo unspecified)
label 0

Field: outcome | Entry: Nc1cc(F)ccc1NC(=O)c1ccc(NC(=O)C/C=C/c2cccnc2)cc1
label 0

Field: outcome | Entry: N#Cc1cccc(CN2CCc3ncn(Cc4ccc(Cl)cc4)c(=O)c3C2)c1
label 0

Field: outcome | Entry: CCNC(=O)N1CCc2cc(OC)c(OCCc3ccc(OC)cc3)cc2C1c1ccc(Cl)cc1C (stereo unspecified)
label 0

Field: outcome | Entry: O=C1Nc2ccccc2/C1=C/c1ccc(CO)n1-c1ccc(Cl)cc1
label 0

Field: outcome | Entry: Cc1ccc2sc3c(c2c1)OC(N)=C(C#N)C3c1cccc(F)c1 (stereo unspecified)
label 1

Field: outcome | Entry: CCOc1ccccc1NC1=C(Cl)C(=O)c2nc(C)ccc2C1=O
label 0

Field: outcome | Entry: Cc1ccc(S(=O)(=O)NCCNc2nc(Nc3ccc(N4CCN(C)CC4)cc3)nc3ccsc23)cc1
label 0

Field: outcome | Entry: COc1cc(-c2nc(-c3ccccc3)[nH]c2-c2ccnc(NCCCNS(=O)(=O)c3cccc(F)c3)n2)ccc1Cl
label 0

Field: outcome | Entry: CC/C(=C/c1c(O)cccc1OC)c1ccc2c(OC)cccc2[o+]1
label 0

Field: outcome | Entry: C=CCn1c(SCC(=O)Nc2ccc(C(=O)/C=C/c3cccc([N+](=O)[O-])c3)cc2)nnc1-c1c[nH]c2ccccc12
label 0

Field: outcome | Entry: Cn1cc(-c2nnc(N)nc2-c2c[nH]c3ccc(F)cc23)c2cc(F)ccc21
label 0

Field: outcome | Entry: N#Cc1cccc(NC(=O)c2cc(-c3ccc(F)cc3F)ccc2O)c1
label 0

Field: outcome | Entry: CCCn1cnc2c(c1=N)C(c1ccc(F)cc1)c1sc3c(CC)cccc3c1O2 (stereo unspecified)
label 0

Field: outcome | Entry: Cc1ccc(N2C(=O)/C(=C/C=C/c3ccco3)SC2=S)cc1
label 0

Field: outcome | Entry: COc1ccc(COc2ccc(/C=C3\C(=O)Nc4ccccc43)cc2OC)cc1
label 0

Field: outcome | Entry: Nn1c(N/N=C/c2nc3ccccc3s2)n[nH]c1=S
label 0

Field: outcome | Entry: O=C(CCC(=O)N1CCOCC1)OCCCCCCSc1ccc([N+](=O)[O-])c2nonc12
label 1

Field: outcome | Entry: NS(=O)(=O)c1ccc(Nc2nc(SCC(=O)c3ccc(Cl)cc3)nc3c2CCCC3)cc1
label 0

Field: outcome | Entry: N#Cc1cccc(CN2CCC3=C(C2)C(=O)N(Cc2ccc(Cl)cc2)C2=NCCN23)c1
label 0

Field: outcome | Entry: COc1ccc2[nH]cc(/C=N/Nc3nc4ccccc4s3)c2c1
label 0
